test system: T1, human mesothelin (human, UniProt Q13421 296-580, limits assumed)
T1 construct: also called Human MSLN
T1 sequence (Q13421 other isoform, or with tags, fused parts or gaps limits assumed): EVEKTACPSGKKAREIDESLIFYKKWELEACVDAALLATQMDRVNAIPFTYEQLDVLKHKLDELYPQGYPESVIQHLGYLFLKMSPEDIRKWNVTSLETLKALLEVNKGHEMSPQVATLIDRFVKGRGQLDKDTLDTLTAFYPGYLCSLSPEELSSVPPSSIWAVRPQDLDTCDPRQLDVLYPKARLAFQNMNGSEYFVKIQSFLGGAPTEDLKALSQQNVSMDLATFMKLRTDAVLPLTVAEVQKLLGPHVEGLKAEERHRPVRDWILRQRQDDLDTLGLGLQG
assay explanation: SPR
measurement label: koff (s⁻¹)
Report the figure in s⁻¹ without appending any unit label.

The value of koff measured for the binder HuAM17 (antibody, V domains shown, fully human antibody) VH: EVQLVQSGAEVKKPGASVKVSCKASGDTFNRYYVQWVRQAPGQGLEWMGIINPSGVSTTYAQKFQGRVTMTRDTSTSTVYMELSSLRSEDTAVYYCAESRVPGYNIFAMDVWGQGTLVTVSS VL: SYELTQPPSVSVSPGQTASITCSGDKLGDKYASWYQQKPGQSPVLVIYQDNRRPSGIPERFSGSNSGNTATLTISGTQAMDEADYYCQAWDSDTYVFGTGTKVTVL turned out to be 1.5e-05

meta.source: patent US20180194862A1
